- study.target: Gal(a1-3)Gal(b1-3)GlcNAc(b1-6)GalNAc
- procedure.text: glycan array binding signal (z-score within array); higher = stronger binding
- condition.info: glycan notation: IUPAC condensed, linker removed
The entries come from a sample that favours the strongest signals as a whole.
reported.endpoint: glycan array binding signal (z-score)

-- ask Output measured glycan array binding signal (z-score) for this item: PhypaEULS3 (Physcomitrella patens) (protein) MLPVRLHCKADPNFNLAAVPGQGPVMVPFSPNDDFQVWYKDVTMSTRVKDETGSSAFSLINKATGQALRHAPEDLAQCLLADYDSNALDQTVLWTMSEDMGQGYCCIRLASQITRNLDVFRGDKKSGGVKEGSPVITFAWKKQDNQIWKMITAILEQKLISEEDLNSAVDHHHHHH
-- reply 0.611

-- ask Output measured glycan array binding signal (z-score) for this item: ERGIC1-EDTA (Homo sapiens), Q969X5 (protein) MKFLVNVALVFMVVYISYIYAAAHMHHHHHHDYDIPTTENLYFQGSEVVNELYVDDPDKDSGGKIDVSLNISLPNLHCELVGLDIQDEMGRHEVGHIDNSMKIPLNNGAGCRFEGQFSINKVPGNFHVSTHSATAQPQNPDMTHVIHKLSFGDTLQVQNIHGAFNALGGADRLTSNPLASHDYILKIVPTVYEDKSGKQRYSYQYTVANKEYVAYSHTGRIIPAIWFRYDLSPITVKYTE
-- reply 0.056

-- ask Output measured glycan array binding signal (z-score) for this item: MpAFP NterminalRI GFP (Marinomonas primoryensis) (protein) MSDNQFPFATLGNAIGFITKLDGSVTVQSIDGQERVLKLGDPIFFGETVLTGGSGSVTIAFVDGTDVVIGGDSIVEMTDEIYNTGDNEDLVADSSSEIDALQNAILAGDDPTLIQDAPAAGNTLADQQRVDVSIERNDNSAQAGFGVDTQSSLPTYGYDTDNGNGGQATEREYSAPSLSRTLNQSPLLEHHHHHH
-- reply -0.446
